# TGT: RGS4 (Homo sapiens, UniProt P49798)
# Sequence (P49798 whole entry, species assumed): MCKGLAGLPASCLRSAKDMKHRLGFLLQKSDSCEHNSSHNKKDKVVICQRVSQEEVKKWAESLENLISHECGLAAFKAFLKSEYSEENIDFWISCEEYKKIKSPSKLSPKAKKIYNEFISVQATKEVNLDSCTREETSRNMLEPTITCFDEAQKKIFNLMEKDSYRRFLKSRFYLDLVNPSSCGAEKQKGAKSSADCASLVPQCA
# ASSAY DETAILS: Steady-state GTPase assay, RGS4-stimulated, CHO cell membranes expressing α2a AR
# Format: biochemical
# Design: key: −: —(no inhibition); relative scale from—(no inhibition) to +++
# CONDITION SET: inhibition of RGS4-mediated GTPase acceleration
Bridges are numbered along the chain shown (N, C = ends). Where no end group is shown, it is not given here.
REPORTED PROPERTY: Activity (inhibitory activity, relative scale)

# example entries with known answers
YJ4(Et) (VKCTSICE; bridge 3-7; also: Et modification, place not given here, cross-link 3-7: disulfide, thioether or lactam) ... +++
JO1(Et) (VKCTGICE; cysteine pairing not given here; also: Et modification) ... −
YJ15(Et) (VKCTGICE; bridge 3-7; also: Et modification, place not given here, cross-link 3-7: disulfide, thioether or lactam) ... −
YJ6(Et) (VKCTSICE; bridge 3-7; also: Et modification, place not given here, cross-link 3-7: disulfide, thioether or lactam) ... −
ES2(Et) (VKCTGFCE; cysteine pairing not given here; also: Et modification) ... +++

Data request: What value of Activity (inhibitory activity, relative scale) has been recorded for this entry: YJ5(Et) (KCTSICE; cysteine pairing not given here; also: Et modification)
Data returned: −
